Test system: Chikungunya virus (CHIKV)
Assay: microbe, parasite or virus in culture
Format: cell-based
Conditions: Chikungunya virus, Vero, 48 h, read-out: Percent viral inhibition CHKV
Returns one of 1.0 or 0.0; 1.0 when inhibition at 1 µM is >= 30%.

Here's what some known entries look like.
| COMPOUND | TEST TARGET | QUALITATIVE LABEL |
| --- | --- | --- |
| CN1CCN(c2ncc(Oc3nc(-c4cc(Cl)cc(Cl)c4)cc(CN4CCC(CC(=O)O)CC4)c3F)cn2)CC1 | Chikungunya virus (CHIKV) | 1.0 |
| CC(=O)NCC1CCN(Cc2cc(Oc3cnc(N4CCN(C5CC(C(=O)O)C5)CC4)nc3)nc(-c3cc(Cl)cc(Cl)c3)c2)CC1 (stereo not drawn) | Chikungunya virus (CHIKV) | 0.0 |
| CNC(=O)NCC1CCN(Cc2cc(Oc3cnc(N4CCN(CC(C)C(=O)O)CC4)nc3)cc(-c3cc(Cl)cc(Cl)c3)c2)CC1 (stereo not drawn) | Chikungunya virus (CHIKV) | 0.0 |
| CC(=O)NCC1CCN(Cc2cc(Oc3cnc(N4CCN(CC(O)CF)CC4)nc3)nc(-c3cc(Cl)cc(Cl)c3)c2)CC1 (stereo not drawn) | Chikungunya virus (CHIKV) | 0.0 |
| CN1CCCN(c2ccc(Oc3cc(CN4CCC(CC(=O)O)CC4)cc(-c4cc(Cl)cc(Cl)c4)n3)cn2)CC1 | Chikungunya virus (CHIKV) | 1.0 |
| CN1CCN(c2ccc(Oc3cc(CN4CCC(CC(=O)O)CC4)cc(-c4cc(Cl)cc(Cl)c4)n3)nn2)CC1 | Chikungunya virus (CHIKV) | 0.0 |
| CC(=O)NCC1CCN(Cc2cc(Oc3cnc(N4CCN(C(C)CCC(=O)O)CC4)nc3)nc(-c3cc(Cl)cc(Cl)c3)c2)CC1 (stereo not drawn) | Chikungunya virus (CHIKV) | 1.0 |
| O=C(O)CC1CCN(Cc2cc(Oc3cnc(N4CCN(CC5(O)CC5)CC4)nc3)nc(-c3cc(Cl)cc(Cl)c3)c2)CC1 | Chikungunya virus (CHIKV) | 1.0 |

Hi team, for "COC(=O)NCC1CCN(Cc2cc(Oc3cnc(N4CC5CCC(C4)N5CCC(=O)O)nc3)nc(-c3cc(Cl)cc(Cl)c3)c2)CC1" , is the recorded inhibition at 1 µM at or above 30%? 1.0

Hi team, for "CN1CCN(c2ncc(Oc3cc(CN4CCC(Cc5nnn[nH]5)CC4)cc(-c4cc(Cl)cc(Cl)c4)n3)cn2)CC1" , is the recorded inhibition at 1 µM at or above 30%? 1.0
